Biological target: FXR ligand binding domain (LBD) (Homo sapiens, UniProt Q96RI1)
Construct: made in house
Sequence (Q96RI1 262-486 limits assumed): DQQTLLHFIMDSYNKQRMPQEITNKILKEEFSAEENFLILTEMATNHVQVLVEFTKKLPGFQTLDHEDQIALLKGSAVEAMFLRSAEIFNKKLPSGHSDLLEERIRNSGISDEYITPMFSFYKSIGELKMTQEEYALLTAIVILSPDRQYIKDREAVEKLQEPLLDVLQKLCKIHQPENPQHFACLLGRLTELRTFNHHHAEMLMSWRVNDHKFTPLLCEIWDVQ
Assay: AlphaScreen assay: FXR LBD recruitment of coregulator peptide motifs (SRC2-3, SRC1-2)
Assay type: biochemical
Details: SRC1-2 peptide; Table 2; read-out: EC50 (μM) of FXR binding by AlphaScreen assay recruit SRC1-2
EC50 overview

CC1(C)C2CCC1(C)C(OC(=O)c1ccc(=O)oc1)C2 (stereo not shown) [XD-9] = 1 to 10 µM
Cc1cc(C(=O)OC2CCCCCCC2)ccc1O [XD-17, cyclooctyl 4-hydroxy-3-methylbenzoate] = < 1 µM
CC1(C)C2CCC1(C)C(OC(=O)C1CCC(O)CC1)C2 (stereo not shown) [XD-20] = 1 to 10 µM
Cc1cc(C(=O)OC2CCC3CCCCC3C2)ccc1O (stereo not shown) [XD-29] = < 0.5 µM
CC1(C)C2CCC1(C)C(OC(=O)c1ccncc1)C2 (stereo not shown) [XD-6] = 1 to 10 µM
Cc1cc(C(=O)OC2CCC3CCCCC3C2)ccc1F (stereo not shown) [XD-34] = < 1 µM
Cc1cc(C(=O)OC2CC3CCC2(C)C3(C)C)ccc1N (stereo not shown) [XD-4] = < 1 µM
CC1(C)C2CCC1(C)C(OC(=O)c1ccc(F)cc1)C2 (stereo not shown) [XD-0] = 1 to 10 µM
Cc1cc(C(=O)OC2CC3CCC2(C)C3(C)C)ccc1F (stereo not shown) [XD-1] = 1 to 10 µM

Switching to the query record.
Ask: Quote EC50 reported for Nc1ccc(C(=O)OC2CCC3CCCCC3C2)cc1 (stereo not shown) [XD-23] please.
Reply: < 0.5 µM
